All values here come from the supplement of paper PMC9233669.

Test system: biotinyl-Val-oxazolone
method summary: self-aminoacylation, catalytic enhancement (BVO) (fold over background); higher = more active; k-Seq, kA / k0A0; sequences stand for … in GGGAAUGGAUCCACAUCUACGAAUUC…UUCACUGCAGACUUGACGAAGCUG
Fewer inactive variants are shown than the library holds.
Everything with self-aminoacylation lower than 2 is Not fulfilled; everything else, including exactly 2, is Fulfilled.

Exercise: Would you say CUACUCCAACCAAUCGGUCUG [Fam1A.1 aminoacylation ribozyme variant] shows self-aminoacylation at minimum 2?
Solution: Not fulfilled

Exercise: Would you say CUUACCCUGGUCAUGGAGUGA [Fam2.1 aminoacylation ribozyme variant] shows self-aminoacylation at minimum 2?
Solution: Fulfilled

Exercise: Would you say AAGUUUCCUAAUAGUCACAAG [Fam3.1 aminoacylation ribozyme variant] shows self-aminoacylation at minimum 2?
Solution: Not fulfilled

Exercise: Would you say AUUACCGUGGUCAUCGAGUAA [Fam2.1 aminoacylation ribozyme variant] shows self-aminoacylation at minimum 2?
Solution: Not fulfilled

Exercise: Would you say ACUACCCUGGUGAUCGAGUGA [Fam2.1 aminoacylation ribozyme variant] shows self-aminoacylation at minimum 2?
Solution: Fulfilled

Exercise: Would you say AAUUUUGCUAAUAGUCGCAAC [Fam3.1 aminoacylation ribozyme variant] shows self-aminoacylation at minimum 2?
Solution: Not fulfilled

Exercise: Would you say CUACUUCAAAAAAUCGUUCUG [Fam1A.1 aminoacylation ribozyme variant] shows self-aminoacylation at minimum 2?
Solution: Not fulfilled

Exercise: Would you say AUUCGCCUAGGUCAUCGGGUA [Fam2.2 aminoacylation ribozyme variant] shows self-aminoacylation at minimum 2?
Solution: Fulfilled

Exercise: Would you say AUUACCCUGGGCAUCGAGUCA [Fam2.1 aminoacylation ribozyme variant] shows self-aminoacylation at minimum 2?
Solution: Not fulfilled

Exercise: Would you say AUCCACCUAGGUCAUCUGGUG [Fam2.2 aminoacylation ribozyme variant] shows self-aminoacylation at minimum 2?
Solution: Fulfilled

Exercise: Would you say AUUCACCUUGGUCAGCGGGUG [Fam2.2 aminoacylation ribozyme variant] shows self-aminoacylation at minimum 2?
Solution: Fulfilled

Exercise: Would you say AUUCACCAAGGUCAUUGGGUG [Fam2.2 aminoacylation ribozyme variant] shows self-aminoacylation at minimum 2?
Solution: Fulfilled

Exercise: Would you say AUUGACCUAGGUCAUCGGGUU [Fam2.2 aminoacylation ribozyme variant] shows self-aminoacylation at minimum 2?
Solution: Fulfilled

Exercise: Would you say CCACUCUUCAAGCACUCGGUC [Fam1B.1 aminoacylation ribozyme variant] shows self-aminoacylation at minimum 2?
Solution: Not fulfilled

Exercise: Would you say CUACACUUUAAGCAAUCGGUC [Fam1B.1 aminoacylation ribozyme variant] shows self-aminoacylation at minimum 2?
Solution: Not fulfilled

* * *

Test system: biotinyl-Ile-oxazolone
method summary: self-aminoacylation, catalytic enhancement (BIO) (fold over background); higher = more active; k-Seq, kA / k0A0; sequences stand for … in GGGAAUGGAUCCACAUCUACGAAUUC…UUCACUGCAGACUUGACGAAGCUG
This sample holds only a part of the variants without activity.
measured property: self-aminoacylation
Could you respond with only the numeric value?

Known self-aminoacylation results, listed for orientation:
>  <macromolecule sequence>
CCUCACUUGAAGCAAUCGGUC [Fam1B.1 aminoacylation ribozyme variant]

>  <self-aminoacylation>
0.636

$$$$
>  <macromolecule sequence>
AUUCACCUAGGAAAUCGGGUG [Fam2.2 aminoacylation ribozyme variant]

>  <self-aminoacylation>
4.03

$$$$

Notebook: UUAACCCUGGUCAUCGAGUGA [Fam2.1 aminoacylation ribozyme variant] , self-aminoacylation read as 5.63
